Here, each record is paired with measured Kd data.
biological target: Sodium channel protein type 8 subunit alpha (Homo sapiens); assay: Binding affinity to human recombinant Nav1.6 C-terminal domain expressed in Escherichia coli BL21 assessed as dissociation constant by SPR analysis
Sequence (Q9UQD0 whole entry, the tested form may be a part): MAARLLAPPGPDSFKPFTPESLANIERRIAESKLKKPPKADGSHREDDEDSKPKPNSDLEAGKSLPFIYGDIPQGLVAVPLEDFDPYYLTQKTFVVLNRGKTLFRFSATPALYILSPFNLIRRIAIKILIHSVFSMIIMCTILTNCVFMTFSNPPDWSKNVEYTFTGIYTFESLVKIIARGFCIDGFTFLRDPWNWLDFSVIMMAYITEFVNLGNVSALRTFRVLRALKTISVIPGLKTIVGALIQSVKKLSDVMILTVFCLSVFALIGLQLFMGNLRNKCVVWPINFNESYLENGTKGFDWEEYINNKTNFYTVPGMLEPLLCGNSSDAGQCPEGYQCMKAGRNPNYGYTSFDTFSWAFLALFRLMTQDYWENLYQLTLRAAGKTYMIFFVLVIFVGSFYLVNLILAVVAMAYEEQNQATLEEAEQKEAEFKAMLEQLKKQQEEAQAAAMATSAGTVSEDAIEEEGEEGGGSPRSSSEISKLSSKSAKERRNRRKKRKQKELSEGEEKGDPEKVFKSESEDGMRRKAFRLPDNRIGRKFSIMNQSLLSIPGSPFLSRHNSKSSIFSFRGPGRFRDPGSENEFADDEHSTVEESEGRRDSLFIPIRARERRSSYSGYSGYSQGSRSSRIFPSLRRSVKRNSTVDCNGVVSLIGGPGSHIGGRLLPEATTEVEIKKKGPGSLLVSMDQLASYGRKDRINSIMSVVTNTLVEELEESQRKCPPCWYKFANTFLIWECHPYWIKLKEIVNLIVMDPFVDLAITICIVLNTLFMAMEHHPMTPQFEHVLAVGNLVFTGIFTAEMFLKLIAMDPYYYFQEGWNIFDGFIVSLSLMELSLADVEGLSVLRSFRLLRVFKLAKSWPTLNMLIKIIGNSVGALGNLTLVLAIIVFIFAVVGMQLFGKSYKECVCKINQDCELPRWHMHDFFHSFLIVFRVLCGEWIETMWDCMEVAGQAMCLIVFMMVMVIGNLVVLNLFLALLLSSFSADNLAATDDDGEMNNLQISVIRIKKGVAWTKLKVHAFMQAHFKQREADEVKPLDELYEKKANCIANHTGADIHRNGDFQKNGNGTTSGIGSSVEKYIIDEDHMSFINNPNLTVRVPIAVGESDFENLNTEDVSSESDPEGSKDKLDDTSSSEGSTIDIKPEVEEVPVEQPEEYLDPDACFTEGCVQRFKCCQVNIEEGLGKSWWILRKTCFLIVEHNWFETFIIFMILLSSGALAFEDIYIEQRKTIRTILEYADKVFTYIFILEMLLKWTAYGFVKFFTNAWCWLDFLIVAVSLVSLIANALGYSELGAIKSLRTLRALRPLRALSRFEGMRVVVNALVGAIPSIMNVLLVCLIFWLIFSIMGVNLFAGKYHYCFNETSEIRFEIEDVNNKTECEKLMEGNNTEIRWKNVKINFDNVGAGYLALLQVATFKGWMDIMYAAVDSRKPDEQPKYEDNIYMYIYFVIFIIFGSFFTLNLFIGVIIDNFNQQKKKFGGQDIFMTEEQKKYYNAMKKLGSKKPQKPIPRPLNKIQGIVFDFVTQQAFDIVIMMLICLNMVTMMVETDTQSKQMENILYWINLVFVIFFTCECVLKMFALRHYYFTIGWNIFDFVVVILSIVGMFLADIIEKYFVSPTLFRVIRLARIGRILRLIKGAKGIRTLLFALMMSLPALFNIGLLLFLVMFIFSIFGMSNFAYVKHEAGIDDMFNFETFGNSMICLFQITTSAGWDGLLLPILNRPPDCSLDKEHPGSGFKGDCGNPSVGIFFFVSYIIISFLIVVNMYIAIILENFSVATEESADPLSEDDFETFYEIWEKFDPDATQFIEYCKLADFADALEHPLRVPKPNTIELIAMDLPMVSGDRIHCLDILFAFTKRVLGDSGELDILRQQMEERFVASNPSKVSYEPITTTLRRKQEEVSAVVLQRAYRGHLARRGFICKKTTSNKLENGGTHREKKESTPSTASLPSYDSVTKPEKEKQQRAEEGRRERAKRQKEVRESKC
Residues, ends and D or L forms follow the SMILES beside them. *: point of attachment. Adamantane1carbonyl = O=C(C12CC3CC(CC(C3)C1)C2)*; OcHex = C1CCC(O*)CC1; OtBu = CC(C)(C)O*; OPr = CCCO*; X1 = C#CCO*

Lookup: Query Kd for CCOC(=O)[C@@H](NC(=O)[C@H](CCC(=O)OC(C)(C)C)NC(=O)[C@H](CC(C)C)NC(=O)[C@@H]1CCCN1C(=O)C12CC3CC(CC(C3)C1)C2)C(C)C (Adamantane1carbonyl-PLE(OtBu)V-OEt)
Found: 67.3 µM

Lookup: Query Kd for C#CCOC(=O)[C@@H](NC(=O)[C@H](CCC(=O)OC(C)(C)C)NC(=O)[C@H](CC(C)C)NC(=O)[C@@H]1CCCN1C(=O)C12CC3CC(CC(C3)C1)C2)C(C)C (Adamantane1carbonyl-PLE(OtBu)V-X1)
Found: > 200 µM

Lookup: Query Kd for CCCOC(=O)[C@@H](NC(=O)[C@H](CCC(=O)OC(C)(C)C)NC(=O)[C@H](CC(C)C)NC(=O)[C@@H]1CCCN1C(=O)C12CC3CC(CC(C3)C1)C2)C(C)C (Adamantane1carbonyl-PLE(OtBu)V-OPr)
Found: 90.1 µM

Lookup: Query Kd for CC(C)C[C@H](NC(=O)[C@@H]1CCCN1C(=O)C12CC3CC(CC(C3)C1)C2)C(=O)N[C@@H](CCC(=O)OC(C)(C)C)C(=O)N[C@H](C(=O)OC1CCCCC1)C(C)C (Adamantane1carbonyl-PLE(OtBu)V-OcHex)
Found: > 200 µM

* * *

Target: Fibroblast growth factor 14 (Homo sapiens)
Sequence (Q92915 whole entry): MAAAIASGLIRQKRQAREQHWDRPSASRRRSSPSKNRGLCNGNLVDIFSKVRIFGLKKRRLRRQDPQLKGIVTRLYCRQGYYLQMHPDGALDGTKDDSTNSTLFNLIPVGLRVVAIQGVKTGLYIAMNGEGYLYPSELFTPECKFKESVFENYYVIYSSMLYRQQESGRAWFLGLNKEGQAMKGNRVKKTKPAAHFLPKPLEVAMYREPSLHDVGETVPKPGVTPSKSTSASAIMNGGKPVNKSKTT
Assay: Binding affinity to human recombinant FGF14 expressed in Escherichia coli BL21 assessed as dissociation constant by SPR analysis
Residues, ends and D or L forms follow the SMILES beside them. *: point of attachment. Adamantane1carbonyl = O=C(C12CC3CC(CC(C3)C1)C2)*; Pyrrolidide = C1CCN(*)C1; Cbz = O=C(OCc1ccccc1)*; OtBu = CC(C)(C)O*; OAll = C=CCO*; OPr = CCCO*; X1 = C#CCO*
Kd strictly under 7 µM means criterion met; at 7 µM or over means criterion not met.

>>> qualitative_label("COC(=O)[C@@H](NC(=O)[C@H](CCC(=O)OC(C)(C)C)NC(=O)[C@H](CC(C)C)NC(=O)[C@@H]1CCCN1C(=O)C12CC3CC(CC(C3)C1)C2)C(C)C (Adamantane1carbonyl-PLE(OtBu)V-OMe)")
"criterion met"
>>> qualitative_label("CC(C)C[C@H](NC(=O)[C@@H]1CCCN1C(=O)OCc1ccccc1)C(=O)N[C@@H](CCC(=O)OC(C)(C)C)C(=O)N[C@H](C(=O)N1CCCC1)C(C)C (Cbz-PLE(OtBu)V-Pyrrolidide)")
"criterion not met"
>>> qualitative_label("C#CCOC(=O)[C@@H](NC(=O)[C@H](CCC(=O)OC(C)(C)C)NC(=O)[C@H](CC(C)C)NC(=O)[C@@H]1CCCN1C(=O)C12CC3CC(CC(C3)C1)C2)C(C)C (Adamantane1carbonyl-PLE(OtBu)V-X1)")
"criterion not met"

Lookup: Check if Kd falls below 7 µM for CCCOC(=O)[C@@H](NC(=O)[C@H](CCC(=O)OC(C)(C)C)NC(=O)[C@H](CC(C)C)NC(=O)[C@@H]1CCCN1C(=O)C12CC3CC(CC(C3)C1)C2)C(C)C (Adamantane1carbonyl-PLE(OtBu)V-OPr) .
Found: criterion not met

Lookup: Check if Kd falls below 7 µM for CCOC(=O)[C@@H](NC(=O)[C@H](CCC(=O)OC(C)(C)C)NC(=O)[C@H](CC(C)C)NC(=O)[C@@H]1CCCN1C(=O)C12CC3CC(CC(C3)C1)C2)C(C)C (Adamantane1carbonyl-PLE(OtBu)V-OEt) .
Found: criterion not met

Lookup: Check if Kd falls below 7 µM for C=CCOC(=O)[C@@H](NC(=O)[C@H](CCC(=O)OC(C)(C)C)NC(=O)[C@H](CC(C)C)NC(=O)[C@@H]1CCCN1C(=O)C12CC3CC(CC(C3)C1)C2)C(C)C (Adamantane1carbonyl-PLE(OtBu)V-OAll) .
Found: criterion met
